- TARGET ENTITY: T1, VACV D8 protein (vaccinia virus, UniProt P04195 1-261)
- T1 sequence: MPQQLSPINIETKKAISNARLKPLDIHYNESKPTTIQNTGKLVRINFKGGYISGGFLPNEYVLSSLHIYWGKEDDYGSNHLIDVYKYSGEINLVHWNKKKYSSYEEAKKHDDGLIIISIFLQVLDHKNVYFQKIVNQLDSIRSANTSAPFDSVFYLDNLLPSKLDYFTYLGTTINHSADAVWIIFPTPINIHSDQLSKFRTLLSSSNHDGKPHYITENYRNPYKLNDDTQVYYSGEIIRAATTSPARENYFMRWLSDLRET
- MEASUREMENT DESCRIPTION: lysate ELISA
This listing pairs binders with measured EC50.
Answer format: numeric, µg/mL implied, no suffix.

>>> quantitative_readout("VACV-249 (antibody, V domains shown, human IgG1, anti-D8) VH: QVQLVESGPGLVKPSQTLSLTCTVSGGSISRGIYYWSWIRQPAGKGLEWIGRIYTSGSTNYNPSLKSRVTISVDTSKNQFSLKLSSVTAADTAVYYCARDGWYGWYLDLWGRGTLVTVSS VL: EIVMTQSPATLSVSPGERATLSCRASQSVSSDLAWYQQKPGQAPRLLIYGASTRATGIPARFSGSGSGTEFTLTISSLQSEDFAVYYCQQYNNWPGTFGGGTKVDIK")
0.3
>>> quantitative_readout("VACV-136 (antibody, V domains shown, human IgG1, anti-D8) V domain 1: QVTLKESGPVLVNPTETLTLTCTVSGFSLSNARMRVSWIRQPPGKALEWLAHIFSNDEKSYSTSLKSRLTISKDTSKSQVVLTMTNMDPVDTASYYCARMRGEYNSYYFDSWGQGTLVTVS V domain 2: SYELTQPPSVSVSPGQTARITCSGDALPNQYAYWYQQKPGQAPVLVIYKDSERPSGIPERFSGSSSGTTVTLTISGVQAEDEADYYCQSADSSGTSVVFGGGTQVTV")
0.06

Now examine the next entry.
Q: Report EC50 for VACV-128 (antibody, V domains shown, human IgG1, anti-D8) VH: EVQLVQSGAEVKKPGATVKISCKVSGYTFTDYYMHWVQQAPGKGLKWMGLLDPLDGETIYSEKFQGKVTITADTSTDTAYMELSSLRSEDTAVYYCARELTGYLNYWGQGTLVTVSS VL: DIQMTQSPSSLSASVGDRVTITCRASPGICNYLAWYQHKPGKVPKLLIYAASTLQSGVPSRFTGVGSGTNFTLTINNLPPENVATYYCQKYNSAPHTFGQGTKVDIK
A: 0.3

// provenance: patent US11667697
